system: ATP; assay: switch fluorescence ratio, 500 uM ATP over buffer (Cy3 cluster intensity, sum of 5 cycles each) (fold (ratio)); higher = stronger signal-on switching upon ATP binding; sequences stand for … in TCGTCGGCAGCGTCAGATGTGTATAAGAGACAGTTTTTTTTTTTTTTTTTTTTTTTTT…TC; settings: aptamer strand: ATP DNA aptamer (quencher-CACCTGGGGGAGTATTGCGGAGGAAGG + anchor), 100 nM annealed; ATP concentration: 500 uM;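 note: ATP exposure 15 min at 22 °C before imaging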
switch fluorescence ratio listing for selected sequences.
When you answer, write just the number.

ATGGGTCGGA ... 1.01

Q) State, in one line, measured switch fluorescence ratio of GGGGGACGGT
A) 1.02

###

switch fluorescence ratio listing for selected sequences.
system: ATP; assay: switch fluorescence ratio, 500 uM ATP over buffer (Cy3 cluster intensity, sum of 5 cycles each) (fold (ratio)); higher = stronger signal-on switching upon ATP binding; sequences stand for … in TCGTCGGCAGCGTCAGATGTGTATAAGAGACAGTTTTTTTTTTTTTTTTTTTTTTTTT…TC; conditions: aptamer strand: ATP DNA aptamer (quencher-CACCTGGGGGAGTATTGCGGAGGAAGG + anchor), 100 nM annealed; ATP concentration: 500 uM;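 note: ATP exposure 15 min at 22 °C before imaging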
When you answer, write just the number.

CAGGGGATGC ... 0.987
ATACGTTGAA ... 1
ACCAGGGGGT ... 1.05
CGGCTATCTC ... 1.38
CCTCGGGAAA ... 1.06
ACGTCTACTC ... 1.37
TTTAAAGATC ... 1
ATTTCCATGT ... 0.978
GAACTATTTC ... 1.04
CGAGAGGGTG ... 1.03

Q) State, in one line, measured switch fluorescence ratio of GGGATACCCT
A) 0.98

Q) State, in one line, measured switch fluorescence ratio of GGGTTCGGGA
A) 0.991

Q) State, in one line, measured switch fluorescence ratio of GGAGATATCT
A) 1.11

###

test system: ATP; assay: switch fluorescence ratio, 500 uM ATP over buffer (Cy3 cluster intensity, sum of 5 cycles each) (fold (ratio)); higher = stronger signal-on switching upon ATP binding; sequences stand for … in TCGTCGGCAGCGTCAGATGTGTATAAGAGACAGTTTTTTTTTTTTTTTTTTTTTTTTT…TC; conditions: aptamer strand: ATP DNA aptamer (quencher-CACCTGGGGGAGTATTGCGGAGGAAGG + anchor), 100 nM annealed; ATP concentration: 500 uM;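 note: ATP exposure 15 min at 22 °C before imaging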
Measured metric: switch fluorescence ratio
When you answer, write just the number.

CATGGGAGCT ... 1.01
TTCAGCGCGC ... 1.01
GGGACGAATC ... 1.01
TGATTCACTG ... 0.991
TGGGGATATG ... 0.997
TTAAATGAAT ... 0.991
AACCACTCAT ... 1.02
CGTTTTTAAA ... 1.02

Q) State, in one line, measured switch fluorescence ratio of CGTTAGTGTA
A) 0.99

Q) State, in one line, measured switch fluorescence ratio of AAAGGGAACA
A) 1.01

Q) State, in one line, measured switch fluorescence ratio of ATAGAATCAA
A) 1.02

Q) State, in one line, measured switch fluorescence ratio of ACGTTGAATG
A) 1.01

Q) State, in one line, measured switch fluorescence ratio of TAGTTCGTTT
A) 0.998

Q) State, in one line, measured switch fluorescence ratio of AACTACTTTG
A) 1

Q) State, in one line, measured switch fluorescence ratio of CGTAAGAGCT
A) 1

Q) State, in one line, measured switch fluorescence ratio of GAACGAGAGG
A) 1.01
